- Tested on: Aspergillus flavus
- assay_procedure: Antifungal activity against Aspergillus flavus at 300 ppm
- Type: functional
- condition_parameters: read-out: DIZ
observable: zone of inhibition at 300 ppm

Answered examples (3):
- compound: "OC(Cn1cncn1)(Cn1cncn1)c1ccc(F)cc1F [FLUCONAZOLE]"
  zone of inhibition at 300 ppm: "10 mm"
- compound: "Sc1nnc2sc3ccccc3n12"
  zone of inhibition at 300 ppm: "< 10 mm"
- compound: "O=C(CCn1nc2sc3ccccc3n2c1=S)N(C(=O)NC1CCCCC1)C1CCCCC1"
  zone of inhibition at 300 ppm: "< 10 mm"

Measured zone of inhibition at 300 ppm, O=C(CSc1nnc2sc3ccccc3n12)N(C(=O)NC1CCCCC1)C1CCCCC1 : < 10 mm
